The reported measurements were obtained from paper PMC10005185.

IC50 overview
Tested on: Arabidopsis thaliana seeds (WT Col-0, CsPYL1 and CsPYL1^5m lines)
TEST SUMMARY: Seed germination assay
Assay type: in vivo
SETTINGS: Arabidopsis thaliana, line expressing CsPYL1^5m; read-out: Germination IC50
Record the value in nM, omitting the unit from your answer.

>  <COMPOUND>
CCn1c(=O)cc(C)c2cc(CNS(=O)(=O)c3ccccc3)ccc21 [iSB09]

>  <TARGET>
Arabidopsis thaliana seeds (WT Col-0, CsPYL1 and CsPYL1^5m lines)

>  <RESULT NUMBER>
290

$$$$

Req: I have this compound here, Cc1cc(=O)n(C)c2ccc(CNS(=O)(=O)c3ccccc3)cc12 [iSB07] , and I need its recorded IC50.
Resp: 943
